- Test system: TO-3-N3 (biotin conjugate)
- PROTOCOL TEXT: pull-down binding Z-score (relative to library population); higher = stronger binding
- DETAILS: RNA library: Library-2
RECORDED ENDPOINT: pull-down binding Z-score
// return a plain number; no unit text

So what does the record say about pull-down binding Z-score for CGGUCGGAUAAUCACAUGACGAG [hsa-mir-2114] ?
-0.513

Likewise for CUGAGGAAUUUGCUGGGAUAUGUCAG [hsa-mir-584] ?
0.181

Likewise for GCCUGUGUAGACGGGGACCUGCCCUGCAUGGGCACCCCCUCACUGGC [hsa-mir-6762] ?
0.332

* * *

- Tested on: TO-N3-2 (biotin conjugate)
- PROTOCOL TEXT: pull-down binding Z-score (relative to library population); higher = stronger binding
- DETAILS: RNA library: Library-2
Label YES when pull-down binding Z-score is at or above 0.6; anything below gets NO.

Recorded results for 3 sequences are shown here.
CCAUUAUUGCUACUGUUCAGCAGGUGCUGCUGGUGGUGAUGG [hsa-mir-1260b] | NO
GAAUUUACACCUUUUGAUGUUGUUAGACAAUGCUCAGGUGUUACUUUC | NO
GCAGCAGGCACCUGCUUCC [hsa-mir-6868] | YES

State whether the measured pull-down binding Z-score reaches 0.6, counting equality as reaching it, for AGGUGGAAAGGGAGCAGGAGCAUCGUCUUUAAGAGGGUCAGGUACCUUUGCUCUUA [hsa-mir-6083]
YES

Likewise for UAGGGCGCGGAGGGCGGACCGGGAA [hsa-mir-638] ?
YES

Likewise for UGUACAUACAGCUAAUAAAUGGGAUCUCAUUAUUAGUGAUAUGUACG [DMSMaPseq_invitro_SARS-CoV-2_Motif_370] ?
NO

Likewise for GGCGCACAGCAGACCCUGCAAUCAUGCC [hsa-mir-3164] ?
YES

Likewise for GCUUCUGCUGCAUGAUCUCCGAGUCCCUGGGGGUAGAGAUGAUGGGGCACUGGGAGGU [hsa-mir-1282] ?
YES

Likewise for GAAUGGAGAACGCAGUGGGGCGCGAUCAAAACAACGUCGGCCCCAAGGUUUACCCAAUAAUACUGCGUCUUGGUUC ?
YES

Likewise for CAGAGGCUGGCUUUCCAAAACUCUG [hsa-mir-1913] ?
NO

Likewise for GGGACACAUUUGAGCCAAAUGUCCC [hsa-mir-610] ?
NO

Likewise for GUCUGUUUUCUUCAUGGUUUUCUGAC [hsa-mir-6759] ?
NO

Likewise for UGGCUUCUGCCUCUUUCUUUGUGGAAGCCA [hsa-mir-4269] ?
NO

Likewise for GCCCUGGAAUGAUGAUGGGC [IAV_invivo_PB1_2_Motif_20+IAV_invivo_PB1_2_Motif_20] ?
YES

Likewise for UUUGGCUGCCAAAAGAAAUGGCCAAA [hsa-mir-548at] ?
NO

Likewise for AGUCUGUCUCAUACCCAACCAGAUU [hsa-mir-205] ?
NO

Likewise for ACAUGAAAAUAAAAUGUAAAUUAUUUUAUUUCUAUCA [hsa-mir-3671] ?
NO

Likewise for GUGUAUGCUGCUGACCCUGCUAUGCACGCUGCUUCUGGUAAUCUAUUACUAGAUAAACGCACUACGUGCUUUUCAGUAGCUGCAC ?
YES

Likewise for GUGCCCAAAAUACGUCAGGAGUGC [IAV_invivo_HA_4_Motif_13+IAV_invivo_HA_4_Motif_13] ?
NO
